Data origin: ChEMBL document CHEMBL3603789

# maps each entry to its MIC
System: Escherichia coli
Assay: Antibacterial activity against Escherichia coli ATCC 25922 after 24 hrs by broth microdilution method
Type: functional
Details: ATCC 25922, 24 h
Peptide text beside a SMILES is read from it. * marks the point of attachment. Decanoyl = CCCCCCCCCC(=O)*
Entry rule: numbers only, all in µM.

// CC(=O)N[C@@H](CCCNC(=N)N)C(=O)NCC(=O)N[C@@H](CCCNC(=N)N)C(=O)N[C@@H](CCCCN)C(=O)NCC(=O)NCC(=O)N[C@@H](CCCNC(=N)N)C(=O)N[C@@H](CCCNC(=N)N)C(=O)N[C@@H](CCCCN)C(=O)N[C@@H](CCCCN)C(=O)O (Ac-RGRKGGRRKK-OH) : MIC value = 20

Continuing:
The reported value for CCCCCCCCCC(=O)N[C@@H](CCCNC(=N)N)C(=O)NCC(=O)N[C@@H](CCCNC(=N)N)C(=O)N[C@@H](CCCCN)C(=O)NCC(=O)NCC(=O)N[C@@H](CCCNC(=N)N)C(=O)N[C@@H](CCCNC(=N)N)C(=O)N[C@@H](CCCCN)C(=O)N[C@@H](CCCCN)C(=O)O (Decanoyl-RGRKGGRRKK-OH) in terms of MIC is 10

Data point: CC(C)[C@H](NC(=O)[C@H](CCCCN)NC(=O)[C@H](CCCNC(=N)N)NC(=O)CNC(=O)[C@@H](N)CCCNC(=N)N)C(=O)N[C@H](C(=O)N[C@@H](CCCNC(=N)N)C(=O)N[C@@H](CCCNC(=N)N)C(=O)N[C@@H](CCCCN)C(=O)N[C@@H](CCCCN)C(=O)O)C(C)C (H-RGRKVVRRKK-OH) ; MIC = 10

###

Test system: Escherichia coli
Assay: Antibacterial activity against Escherichia coli ATCC 25922 after 24 hrs by broth microdilution method
Type: functional
Settings: ATCC 25922, 24 h
Bridge positions count the residues as written; N and C are the ends. Peptide text beside a SMILES is read from it. I, II: the chains in the order shown. * marks the point of attachment. Palmitoyl = CCCCCCCCCCCCCCCC(=O)*; Octanoyl = CCCCCCCC(=O)*; Hexanoyl = CCCCCC(=O)*
# MIC per record follows
Quick note: give the figure in µM, leave out the unit.

Worked examples, 2 molecules total:
Notebook: CCCCCC(=O)N[C@@H](CCCNC(=N)N)C(=O)NCC(=O)N[C@@H](CCCNC(=N)N)C(=O)N[C@@H](CCCCN)C(=O)N[C@H](C(=O)N[C@H](C(=O)N[C@@H](CCCNC(=N)N)C(=O)N[C@@H](CCCNC(=N)N)C(=O)N[C@@H](CCCCN)C(=O)N[C@@H](CCCCN)C(=O)O)C(C)C)C(C)C (Hexanoyl-RGRKVVRRKK-OH) , MIC read as 10

response.value for CCCCCCCCCCCCCCCC(=O)N[C@@H](CCCNC(=N)N)C(=O)NCC(=O)N[C@@H](CCCNC(=N)N)C(=O)N[C@@H](CCCCN)C(=O)N[C@H](C(=O)N[C@H](C(=O)N[C@@H](CCCNC(=N)N)C(=O)N[C@@H](CCCNC(=N)N)C(=O)N[C@@H](CCCCN)C(=O)N[C@@H](CCCCN)C(=O)O)C(C)C)C(C)C (Palmitoyl-RGRKVVRRKK-OH) (field: MIC) = 10

---
Per the record, CCCCCCCC(=O)N[C@@H](CCCNC(=N)N)C(=O)NCC(=O)N[C@@H](CCCNC(=N)N)C(=O)N[C@@H](CCCCN)C(=O)NCC(=O)NCC(=O)N[C@@H](CCCNC(=N)N)C(=O)N[C@@H](CCCNC(=N)N)C(=O)NCCCC[C@H](NC(=O)[C@H](CCCNC(=N)N)NC(=O)[C@H](CCCNC(=N)N)NC(=O)CNC(=O)CNC(=O)[C@H](CCCCN)NC(=O)[C@H](CCCNC(=N)N)NC(=O)CNC(=O)[C@H](CCCNC(=N)N)NC(=O)CCCCCCC)C(=O)N[C@@H](CCCCN)C(=O)O (I: Octanoyl-RGRKGGRRKK-OH / II: Octanoyl-RGRKGGRR; amide I:9-II:C) has MIC of 3

###

Test: Toxicity in New Zealand white rabbit erythrocytes assessed as hemolytic activity after 60 mins
Assay type: cell-based, Oryctolagus cuniculus
Details: erythrocyte, 1 h
Peptide text beside a SMILES is read from it. * marks the point of attachment. Myristoyl = CCCCCCCCCCCCCC(=O)*; Lauroyl = CCCCCCCCCCCC(=O)*
Measured parameter: HC10

Examples with their reported HC10 follow.
Sure, the documented HC10 for CC(=O)N[C@@H](CCCNC(=N)N)C(=O)NCC(=O)N[C@@H](CCCNC(=N)N)C(=O)N[C@@H](CCCCN)C(=O)NCC(=O)NCC(=O)N[C@@H](CCCNC(=N)N)C(=O)N[C@@H](CCCNC(=N)N)C(=O)N[C@@H](CCCCN)C(=O)N[C@@H](CCCCN)C(=O)O (Ac-RGRKGGRRKK-OH) is > 10000 µg/mL

The molecule CCCCCCCCCCCCCC(=O)N[C@@H](CCCNC(=N)N)C(=O)NCC(=O)N[C@@H](CCCNC(=N)N)C(=O)N[C@@H](CCCCN)C(=O)NCC(=O)NCC(=O)N[C@@H](CCCNC(=N)N)C(=O)N[C@@H](CCCNC(=N)N)C(=O)N[C@@H](CCCCN)C(=O)N[C@@H](CCCCN)C(=O)O (Myristoyl-RGRKGGRRKK-OH) showed HC10 equal to 6670 µg/mL

New cases:
Reported HC10 ( CCCCCCCCCCCC(=O)N[C@@H](CCCNC(=N)N)C(=O)NCC(=O)N[C@@H](CCCNC(=N)N)C(=O)N[C@@H](CCCCN)C(=O)N[C@H](C(=O)N[C@H](C(=O)N[C@@H](CCCNC(=N)N)C(=O)N[C@@H](CCCNC(=N)N)C(=O)N[C@@H](CCCCN)C(=O)N[C@@H](CCCCN)C(=O)O)C(C)C)C(C)C (Lauroyl-RGRKVVRRKK-OH) ) = > 10000 µg/mL

###

Experiment: Toxicity in New Zealand white rabbit erythrocytes assessed as hemolytic activity after 60 mins
Assay type: cell-based, Oryctolagus cuniculus
Conditions: erythrocyte, 1 h
Peptide text beside a SMILES is read from it. * marks the point of attachment. Palmitoyl = CCCCCCCCCCCCCCCC(=O)*; Myristoyl = CCCCCCCCCCCCCC(=O)*; Lauroyl = CCCCCCCCCCCC(=O)*
Measured parameter: HC10

Example compounds with recorded HC10:
# HC10 of CCCCCCCCCCCCCC(=O)N[C@@H](CCCNC(=N)N)C(=O)NCC(=O)N[C@@H](CCCNC(=N)N)C(=O)N[C@@H](CCCCN)C(=O)N[C@H](C(=O)N[C@H](C(=O)N[C@@H](CCCNC(=N)N)C(=O)N[C@@H](CCCNC(=N)N)C(=O)N[C@@H](CCCCN)C(=O)N[C@@H](CCCCN)C(=O)O)C(C)C)C(C)C (Myristoyl-RGRKVVRRKK-OH) = 8897 µg/mL

HC10 measured on CCCCCCCCCCCC(=O)N[C@@H](CCCNC(=N)N)C(=O)NCC(=O)N[C@@H](CCCNC(=N)N)C(=O)N[C@@H](CCCCN)C(=O)NCC(=O)NCC(=O)N[C@@H](CCCNC(=N)N)C(=O)N[C@@H](CCCNC(=N)N)C(=O)N[C@@H](CCCCN)C(=O)N[C@@H](CCCCN)C(=O)O (Lauroyl-RGRKGGRRKK-OH) = 8602 µg/mL

Then this compound:
Looking up CCCCCCCCCCCCCCCC(=O)N[C@@H](CCCNC(=N)N)C(=O)NCC(=O)N[C@@H](CCCNC(=N)N)C(=O)N[C@@H](CCCCN)C(=O)NCC(=O)NCC(=O)N[C@@H](CCCNC(=N)N)C(=O)N[C@@H](CCCNC(=N)N)C(=O)N[C@@H](CCCCN)C(=O)N[C@@H](CCCCN)C(=O)O (Palmitoyl-RGRKGGRRKK-OH) , I see its HC10 listed as 5064 µg/mL

###

Assay: Toxicity in New Zealand white rabbit erythrocytes assessed as hemolytic activity after 60 mins
Type: cell-based, Oryctolagus cuniculus
Settings: erythrocyte, 1 h
Peptide text beside a SMILES is read from it. * marks the point of attachment. Octanoyl = CCCCCCCC(=O)*; Butyryl = CCCC(=O)*
Reported HC10 is given for each of the following molecules.

Just so you know, measured HC10 for CCCCCCCC(=O)N[C@@H](CCCNC(=N)N)C(=O)NCC(=O)N[C@@H](CCCNC(=N)N)C(=O)N[C@@H](CCCCN)C(=O)N[C@H](C(=O)N[C@H](C(=O)N[C@@H](CCCNC(=N)N)C(=O)N[C@@H](CCCNC(=N)N)C(=O)N[C@@H](CCCCN)C(=O)N[C@@H](CCCCN)C(=O)O)C(C)C)C(C)C (Octanoyl-RGRKVVRRKK-OH) came out at > 10000 µg/mL

Documented HC10 of CC(=O)N[C@@H](CCCNC(=N)N)C(=O)NCC(=O)N[C@@H](CCCNC(=N)N)C(=O)N[C@@H](CCCCN)C(=O)N[C@H](C(=O)N[C@H](C(=O)N[C@@H](CCCNC(=N)N)C(=O)N[C@@H](CCCNC(=N)N)C(=O)N[C@@H](CCCCN)C(=O)N[C@@H](CCCCN)C(=O)O)C(C)C)C(C)C (Ac-RGRKVVRRKK-OH) : > 10000 µg/mL

Please turn your attention to the following entry.
The recorded HC10 for CCCC(=O)N[C@@H](CCCNC(=N)N)C(=O)NCC(=O)N[C@@H](CCCNC(=N)N)C(=O)N[C@@H](CCCCN)C(=O)NCC(=O)NCC(=O)N[C@@H](CCCNC(=N)N)C(=O)N[C@@H](CCCNC(=N)N)C(=O)N[C@@H](CCCCN)C(=O)N[C@@H](CCCCN)C(=O)O (Butyryl-RGRKGGRRKK-OH) is > 10000 µg/mL
